# Tested on: F1*sub RNA substrate (template-directed ligation)
# method notes: fraction ligated after 30 min (ligated reads / total reads); higher = more ligase activity; sequences stand for … in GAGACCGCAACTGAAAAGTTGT…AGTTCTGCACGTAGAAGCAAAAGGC
# test context: 42 °C
So basically: fraction ligated at 0.7 or higher? That is 1.0. Lower than 0.7? That is 0.0.

These recorded examples may help you get a feel for the data.
TATCTTGTCGTAAGACACTTTGGATGGGTTA [3d756] :: 1.0
ATCACTTGTCGTAAACACTTTGGATGGGTTA [3d219] :: 0.0
TACACTTGTCGTAAGACATTTGGAGGGTTGA [3d710] :: 0.0
TATCACTTGTCTAAGACCTTGGATGGGTTGA [3d1864] :: 1.0
TATCACTTGTCGAAGACACTTTGATGGTTGA [3d1967] :: 0.0

Would you kindly look at the next entry?
Input: Hi, just wondering whether TATCCTTGTCGAAGACACTTGGATGGGTTGA [3d1035] shows fraction ligated of 0.7 or higher.
Output: 1.0

###

# Tested on: F1*sub RNA substrate (template-directed ligation)
# method notes: fraction ligated after 30 min (ligated reads / total reads); higher = more ligase activity; sequences stand for … in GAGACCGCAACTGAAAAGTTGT…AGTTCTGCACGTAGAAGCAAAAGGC
# test context: 42 °C
recorded metric: fraction ligated
Keep it simple and answer with nothing but the number.

Some solved entries appear below for comparison.
TATCACGTCTAAGACACTTTGGATGGGTTGA [3d1296] :: 0.772
TATCACTGTCGTAGACACTTTGGTGGGTTGA [3d1393] :: 0.499
TTACTTGTCGTAAACACTTTGGATGGGTTGA [3d286] :: 0.00498
TATCACTTGCGTAAGCACTTTGGATGGGTTG [3d1658] :: 0.832
TATCACTTGTGTAAACATTTGGATGGGTTGA [3d1746] :: 0.833

Input: Return fraction ligated (reported value) for this sequence: TTCCTTTCGTAAGACACTTTGGATGGGTTGA [3d299]
Output: 0.753

Input: Specify measured fraction ligated for TATCACTTGTGTAAGACACTTTGGATGGGTTGA [1d10] .
Output: 0.859

Input: Recall and state the measured fraction ligated for TATCACTTGTCGAAGACACTTGATGGGTTGA [3d1958] .
Output: 0.663

Input: Report fraction ligated for TATCACTTTCGTAAGACCTTTGATGGGTTGA [3d1548]
Output: 0.786

Input: Give the value of fraction ligated reported for the following: TACATTGTCGAAGACACTTTGGATGGGTTGA [3d552]
Output: 0.0671

Input: Please look at this sequence and report its fraction ligated: TATACTTGTCGTAAGACACTTTGGATGGTTG [3d946]
Output: 0.0597

###

# Tested on: F1*sub RNA substrate (template-directed ligation)
# method notes: fraction ligated after 30 min (ligated reads / total reads); higher = more ligase activity; sequences stand for … in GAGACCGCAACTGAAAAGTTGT…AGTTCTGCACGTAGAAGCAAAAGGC
# test context: 42 °C
recorded metric: fraction ligated
Lab note: write the figure by itself, no unit.

TATCACTTGTCGTAAACATTTGGAGGGTTGA [3d2077] :: 0.0367

Input: Note fraction ligated for the sequence shown: TATACTTGCGTAAGACACTTTGGATGGGTTG [3d827]
Output: 0.272

Input: Identify the reported fraction ligated for the following entry. TATCACTTGCGAAGACATTTGGATGGGTTGA [3d1618]
Output: 0.814

Input: Supply fraction ligated value. Item: TATCACTTGTCTAAGACACTTTGGATGGGTTGA [1d11]
Output: 0.818

Input: Using known records, supply fraction ligated for TATACTGTCGTAGACACTTTGGATGGGTTGA [3d783]
Output: 0.757

Input: Input TATCACTTGTCGTAAGAATTTGGATGGGTTA [3d2157] , output reported fraction ligated.
Output: 0.765

###

# Test system: F1*sub RNA substrate (template-directed ligation)
# method notes: fraction ligated after 30 min (ligated reads / total reads); higher = more ligase activity; sequences stand for … in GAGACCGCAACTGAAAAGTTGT…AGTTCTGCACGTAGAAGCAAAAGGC
# test context: 42 °C
recorded metric: fraction ligated

Examples with their reported fraction ligated follow.
TTCACTTGTCGTAAGACATTGGATGGGTTGA [3d477] :: 0.653
TATACTTGTCGAAGACACTTTGGTGGGTTGA [3d865] :: 0.0282
ATCACTGTCGTAAGCACTTTGGATGGGTTGA [3d113] :: 0.749
TACACTTGTCGAAGACACTTTGATGGGTTGA [3d653] :: 0.0665
TATCACTTGCGTAAGACATTTGGATGGGTTA [3d1679] :: 0.808
TATACTTGCTAAGACACTTTGGATGGGTTGA [3d813] :: 0.669
TCACTTGTCGTAAGCACTTTGGATGGGTTGA [3d13] :: 0.608
TATCACTTGTCGTAAGACACTTTGATGGGTTG [2d288] :: 0.755
TATACTTGTCTAAGACACTTTGGATGGTTGA [3d854] :: 0.0769
CACTTGTCGTAAGACACTTTGGATGGGTTGA [3d1] :: 0.637

// next item, fraction ligated requested
Input: Respond only with fraction ligated recorded for TATCCTTGTCGTAGACCTTTGGATGGGTTGA [3d1046]
Output: 0.773

###

# System: F1*sub RNA substrate (template-directed ligation)
# method notes: fraction ligated after 30 min (ligated reads / total reads); higher = more ligase activity; sequences stand for … in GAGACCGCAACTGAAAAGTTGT…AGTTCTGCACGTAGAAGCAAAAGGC
# test context: 42 °C
recorded metric: fraction ligated
Field format: numeric only.

Consider the worked cases shown below.
TATCACTTGTCGTAAGACCTTTGGTGGGTTA [3d2198] :: 0.0357
TATCACTTGTGTAGACACTTTGGATGGGTTG [3d1743] :: 0.863
TATCACTTGTCTAAGACACTTTGATGGGTTA [3d1889] :: 0.162

Input: Tell me its fraction ligated given TATCACTTGTCGTAAACACTGGATGGGTTGA [3d2081] as the entry.
Output: 0.787

Input: Give the reported fraction ligated for this sequence. TATCACTTGTCGAAGCACTTTGGATGGGTTA [3d1933]
Output: 0.723

Input: Write down fraction ligated measured for item TACACTTGTCGTAAGACACTTTGGATGGTTA [3d734]
Output: 0.405

Input: Give a short answer stating reported fraction ligated for TATCACTTGCGTAAGAACTTTGATGGGTTGA [3d1661] .
Output: 0.853

Input: Give the reported fraction ligated for this sequence. TTCACTTGTCGTAGACACTTTGGATGGGTTG [3d441]
Output: 0.801

Input: Note down fraction ligated recorded for TATCACTGTCTAAGACCTTTGGATGGGTTGA [3d1363]
Output: 0.795

Input: Supply measured fraction ligated of TATCACTTGTCGTAAGACATTTGGAGGGTTGA [2d272] in your reply.
Output: 0.015

Input: Give fraction ligated for the following sequence: TATCATGTCGTAAGACCTTTGGATGGGTTGA [3d1131]
Output: 0.778

Input: State, in one line, measured fraction ligated of TTACTTGTCGAAGACACTTTGGATGGGTTGA [3d284]
Output: 0.131

Input: Give fraction ligated for the following sequence: TATCACTTGTCAAGACACTTGGATGGGTTGA [3d1816]
Output: 0.76

Input: Indicate the recorded fraction ligated value for this sequence: TATCACTTTCTAAACACTTTGGATGGGTTGA [3d1481]
Output: 0.79

Input: Return reported fraction ligated. Input sequence: TATCATTTCGTAGACACTTTGGATGGGTTGA [3d1143]
Output: 0.802

###

# fraction ligated values compiled below
# Tested on: F1*sub RNA substrate (template-directed ligation)
# method notes: fraction ligated after 30 min (ligated reads / total reads); higher = more ligase activity; sequences stand for … in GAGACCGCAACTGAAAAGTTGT…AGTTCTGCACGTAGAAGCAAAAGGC
# test context: 42 °C

Use the examples below as a reference point.
TATACTTTCGTAAACACTTTGGATGGGTTGA [3d800] :: 0.307
TATCCTTGCGTAAGACACTTTGATGGGTTGA [3d994] :: 0.815

Input: Give reported fraction ligated value for TATACTTGTGTAAGACACTTTGGTGGGTTGA [3d838]
Output: 0.0565

Input: Consider the sequence TACACTTTCGTAAGACACTTTGATGGGTTGA [3d595] . State its measured fraction ligated.
Output: 0.0271

Input: Give a short answer stating reported fraction ligated for TTCACTTGTCGTAAGACACTTTGGTGGGTTGA [2d42] .
Output: 0.0345

Input: Quick one: give measured fraction ligated for TATCCTTGTCGTAAACACTTTGGATGGGTTG [3d1064]
Output: 0.805

Data credit: the supplement of paper PMC6755084
